Sourced from patent US20090270394A1

Biological target: Human Cav2.2 channels (Homo sapiens)
Construct: expressed in transfected cells
Sequence (Q00975 whole entry): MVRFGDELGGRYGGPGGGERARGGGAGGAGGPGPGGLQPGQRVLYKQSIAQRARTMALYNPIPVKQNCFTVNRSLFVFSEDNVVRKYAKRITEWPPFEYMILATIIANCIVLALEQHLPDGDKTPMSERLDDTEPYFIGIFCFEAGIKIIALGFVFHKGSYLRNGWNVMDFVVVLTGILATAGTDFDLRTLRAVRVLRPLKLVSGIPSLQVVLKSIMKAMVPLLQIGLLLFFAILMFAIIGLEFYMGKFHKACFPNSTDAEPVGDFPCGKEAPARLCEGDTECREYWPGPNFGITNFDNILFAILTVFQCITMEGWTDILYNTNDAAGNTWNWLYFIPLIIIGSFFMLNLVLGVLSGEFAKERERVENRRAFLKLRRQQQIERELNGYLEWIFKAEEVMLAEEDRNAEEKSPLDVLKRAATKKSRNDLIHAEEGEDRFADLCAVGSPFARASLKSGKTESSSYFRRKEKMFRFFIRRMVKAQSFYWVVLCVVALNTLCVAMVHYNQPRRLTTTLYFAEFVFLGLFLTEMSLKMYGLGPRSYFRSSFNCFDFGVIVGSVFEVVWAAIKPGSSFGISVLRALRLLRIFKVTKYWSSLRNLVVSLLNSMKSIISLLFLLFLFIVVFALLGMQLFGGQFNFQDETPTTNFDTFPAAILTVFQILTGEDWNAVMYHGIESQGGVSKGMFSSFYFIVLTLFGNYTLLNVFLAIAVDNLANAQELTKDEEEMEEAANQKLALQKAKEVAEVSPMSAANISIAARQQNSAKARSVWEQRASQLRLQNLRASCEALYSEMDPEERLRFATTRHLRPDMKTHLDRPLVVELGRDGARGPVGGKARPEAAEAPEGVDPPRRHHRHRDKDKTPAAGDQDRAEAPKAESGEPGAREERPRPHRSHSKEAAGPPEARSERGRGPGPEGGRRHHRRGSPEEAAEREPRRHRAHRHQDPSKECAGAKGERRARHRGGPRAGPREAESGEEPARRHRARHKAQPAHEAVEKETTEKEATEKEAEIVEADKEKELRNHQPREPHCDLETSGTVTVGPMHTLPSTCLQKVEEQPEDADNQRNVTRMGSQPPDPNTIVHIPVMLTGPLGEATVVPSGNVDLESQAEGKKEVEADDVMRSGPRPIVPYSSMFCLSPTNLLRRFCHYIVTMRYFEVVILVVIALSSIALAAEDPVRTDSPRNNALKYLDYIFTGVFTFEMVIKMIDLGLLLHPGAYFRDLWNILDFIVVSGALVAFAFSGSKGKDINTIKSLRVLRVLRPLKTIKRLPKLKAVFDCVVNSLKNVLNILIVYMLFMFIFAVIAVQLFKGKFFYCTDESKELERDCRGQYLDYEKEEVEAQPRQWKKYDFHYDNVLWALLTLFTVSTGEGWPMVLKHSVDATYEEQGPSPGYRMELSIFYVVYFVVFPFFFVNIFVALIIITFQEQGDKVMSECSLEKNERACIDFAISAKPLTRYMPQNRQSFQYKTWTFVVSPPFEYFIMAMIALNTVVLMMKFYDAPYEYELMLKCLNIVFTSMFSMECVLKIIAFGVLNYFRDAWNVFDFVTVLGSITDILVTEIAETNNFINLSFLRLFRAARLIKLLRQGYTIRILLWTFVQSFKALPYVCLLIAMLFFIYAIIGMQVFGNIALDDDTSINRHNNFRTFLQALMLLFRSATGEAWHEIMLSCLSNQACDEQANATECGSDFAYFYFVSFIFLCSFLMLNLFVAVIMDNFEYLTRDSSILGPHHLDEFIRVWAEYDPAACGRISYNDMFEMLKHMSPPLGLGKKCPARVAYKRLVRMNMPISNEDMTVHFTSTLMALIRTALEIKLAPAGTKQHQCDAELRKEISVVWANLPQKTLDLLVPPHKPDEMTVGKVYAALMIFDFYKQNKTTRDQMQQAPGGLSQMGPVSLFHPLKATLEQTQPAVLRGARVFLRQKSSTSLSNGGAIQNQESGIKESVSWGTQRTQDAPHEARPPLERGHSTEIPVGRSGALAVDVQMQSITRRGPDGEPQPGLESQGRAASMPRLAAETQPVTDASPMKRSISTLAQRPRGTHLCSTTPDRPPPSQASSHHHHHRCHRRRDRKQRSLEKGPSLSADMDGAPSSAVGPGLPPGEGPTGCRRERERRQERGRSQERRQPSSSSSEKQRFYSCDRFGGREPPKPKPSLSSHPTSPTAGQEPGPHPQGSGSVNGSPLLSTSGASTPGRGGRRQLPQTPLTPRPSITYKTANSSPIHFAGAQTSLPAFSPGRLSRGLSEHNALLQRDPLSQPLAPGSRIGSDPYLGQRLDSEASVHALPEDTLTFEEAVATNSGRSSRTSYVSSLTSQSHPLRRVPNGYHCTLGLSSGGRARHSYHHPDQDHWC
Sequence (P54289 25-1103 partner): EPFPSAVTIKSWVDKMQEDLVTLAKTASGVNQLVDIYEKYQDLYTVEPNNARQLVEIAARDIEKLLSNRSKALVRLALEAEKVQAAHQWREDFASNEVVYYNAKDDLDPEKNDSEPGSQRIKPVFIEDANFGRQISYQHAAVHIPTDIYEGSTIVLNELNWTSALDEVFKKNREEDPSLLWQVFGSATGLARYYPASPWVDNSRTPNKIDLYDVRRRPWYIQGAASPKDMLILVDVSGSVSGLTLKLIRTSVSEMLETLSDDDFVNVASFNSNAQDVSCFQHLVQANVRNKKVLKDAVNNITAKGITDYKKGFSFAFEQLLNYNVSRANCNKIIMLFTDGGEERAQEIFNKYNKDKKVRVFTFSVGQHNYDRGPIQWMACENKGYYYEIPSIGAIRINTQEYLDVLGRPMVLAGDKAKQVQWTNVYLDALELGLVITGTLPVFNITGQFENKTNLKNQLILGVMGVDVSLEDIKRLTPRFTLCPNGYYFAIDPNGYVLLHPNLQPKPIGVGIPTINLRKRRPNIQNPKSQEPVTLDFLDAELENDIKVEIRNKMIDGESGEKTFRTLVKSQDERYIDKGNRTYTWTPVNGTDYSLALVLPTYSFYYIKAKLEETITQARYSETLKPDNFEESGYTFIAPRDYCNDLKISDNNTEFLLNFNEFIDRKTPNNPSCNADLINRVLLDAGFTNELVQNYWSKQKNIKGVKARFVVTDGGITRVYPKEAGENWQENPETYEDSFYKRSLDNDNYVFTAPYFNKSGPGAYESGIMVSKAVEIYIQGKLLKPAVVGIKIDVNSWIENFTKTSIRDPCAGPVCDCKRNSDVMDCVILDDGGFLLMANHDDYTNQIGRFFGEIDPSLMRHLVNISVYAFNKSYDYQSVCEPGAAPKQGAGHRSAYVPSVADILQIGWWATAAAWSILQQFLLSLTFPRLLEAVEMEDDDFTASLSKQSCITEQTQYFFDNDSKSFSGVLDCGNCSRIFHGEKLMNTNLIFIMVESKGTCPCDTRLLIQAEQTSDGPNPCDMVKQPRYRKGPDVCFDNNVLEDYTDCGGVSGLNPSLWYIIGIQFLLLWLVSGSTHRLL
Sequence (P54284 whole entry partner): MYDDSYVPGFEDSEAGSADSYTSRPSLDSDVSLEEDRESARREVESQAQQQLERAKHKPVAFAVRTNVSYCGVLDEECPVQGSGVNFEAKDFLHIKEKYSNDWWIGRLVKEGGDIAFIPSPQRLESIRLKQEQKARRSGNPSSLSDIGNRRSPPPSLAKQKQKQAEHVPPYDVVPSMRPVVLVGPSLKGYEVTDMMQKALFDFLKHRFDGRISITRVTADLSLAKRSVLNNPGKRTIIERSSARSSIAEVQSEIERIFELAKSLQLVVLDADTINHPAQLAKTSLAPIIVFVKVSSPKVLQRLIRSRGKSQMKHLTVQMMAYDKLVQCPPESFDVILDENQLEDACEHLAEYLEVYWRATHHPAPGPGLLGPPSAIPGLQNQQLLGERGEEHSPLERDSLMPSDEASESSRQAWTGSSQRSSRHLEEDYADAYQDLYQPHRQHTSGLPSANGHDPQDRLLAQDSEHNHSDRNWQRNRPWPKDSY
Experiment: Fluorescent assay for Cav2.2 channels using potassium depolarization to initiate channel opening
Type: cell-based
Settings: 10 μM compound; read-out: Cav 2.2 Activity % Inh at 10 μM
measurementType: inhibition at 10 µM (%)

{"columns": ["molecule", "inhibition at 10 µM [%]"],
 "data": [
  ["Cc1cc(CNC(=O)C2(NC(=O)c3cc(C(C)(C)C)nc(C(C)(C)C)c3)CCCCC2)nn1C [Compound 78]", 79.5],
  ["CC(C)(C#N)c1cc(C(=O)NC2(C(=O)NCc3cccc(C(F)(F)F)c3)CCCCC2)cc(C(C)(C)C#N)c1 [Compound 40]", 80],
  ["CC(C)(C)c1cc(CNC2(C(=O)NCc3cccc(C(F)(F)F)c3)CCCCC2)cc(C(C)(C)C)c1 [Compound 60]", 74.8]
]}
